Provide the reported pIC50 of each item.
- System: HCV replicon 1AY93H
- PROTOCOL_NOTES: Cell-based HCV Replicon Assay A, replicon 1AY93H
- ASSAY_SETUP: read-out: 1A Y93H IC50, replicon 1AY93H
# pIC50 is unitless: minus log10 of the molar concentration; print number only

Could you share which pIC50 value was measured for COC(=O)N[C@H](C(=O)N1CCC[C@H]1c1ncc(-c2cc(F)c3c(c2)OC(c2ncc(-c4ccc(C#N)cc4)s2)n2c-3cc3cc(-c4cnc([C@@H]5CCCN5C(=O)[C@@H](NC(=O)OC)C(C)C)[nH]4)ccc32)[nH]1)C(C)C (single isomer, unassigned) [Compound 44] ?
9.99

Same lookup for COC(=O)N[C@H](C(=O)N1CCC[C@H]1c1ncc(-c2cc(F)c3c(c2)OC(c2ncc(-c4ccc(F)cc4)s2)n2c-3cc3cc(-c4cnc([C@@H]5CCCN5C(=O)[C@@H](NC(=O)OC)C(C)C)[nH]4)ccc32)[nH]1)C(C)C (single isomer, unassigned) [Compound 33] , please.
8.93

Same lookup for COC(=O)N[C@H](C(=O)N1CCC[C@H]1c1ncc(-c2cc(F)c3c(c2)OC(c2cnc(C4(C)CC4)s2)n2c-3cc3cc(-c4cnc([C@@H]5C[C@H]6C[C@H]6N5C(=O)[C@@H](NC(=O)OC)C(C)C)[nH]4)ccc32)[nH]1)C(C)C (single isomer, unassigned) [Compound 453] , please.
9.68

Same lookup for CCCc1ncc(C2Oc3cc(-c4cnc([C@@H]5CCCN5C(=O)[C@@H](NC(=O)OC)C(C)C)[nH]4)cc(F)c3-c3cc4cc(-c5cnc([C@@H]6C[C@H]7C[C@H]7N6C(=O)C(NC(=O)OC)C6CCOC(C)(C)C6)[nH]5)ccc4n32)s1 (single isomer, unassigned) [Compound 106] , please.
10.47
